# Test system: HT29 colon
# Assay info: NCI-60 one-dose screen, 48 h (100 = growth as untreated, 0 = no growth, -100 = all killed)
# Test conditions: 10 µM
Compounds without any hit were thinned out: in the full panel of roughly 83,000, 20% have a hit.
Test readout: growth (%)
Numbers only, in %.

O=C(Nc1cccc2c1CCCC2)c1cc2ccccc2cc1O; 90.5
IC(I)I; 115
O=[N+]([O-])c1ccc(NCSc2ccc(Cl)cc2)cc1; 107
COc1ccc(C2CC(c3cccs3)=NN2c2ccc(S(N)(=O)=O)cc2)cc1 (centres undefined); 86.8
O=C(CCCSc1nc(-c2ccc(Cl)cc2)cc(-c2ccc(Cl)cc2)n1)NO; 23.2
COc1ccc(-c2cc(-c3ccc(OC)c(OC)c3)nc(SCCCC(=O)NO)n2)cc1; 4.72
COc1ccc([C@H]2[C@H](C(=O)Nc3cccnc3)c3ccccc3C(=O)N2c2ccccc2)cc1; 81.3
CN(C)CCCN1c2ccccc2CCc2ccc(Cl)cc21; 18.8
CC(C)(C)OC(=O)CN1CCc2c(sc3ncnc(N/N=C/c4ccccc4Br)c23)C1; 81.6
Cc1cc(=O)n2nnc3cc(C(F)(F)F)ccc3n12; 104

For each entry beneath this line, provide reported growth.
1. Cc1ccc(NC(=S)NNC(=S)Nc2ccc(C)cc2)cc1
2. COc1cc(-c2nc3ccccc3o2)cc(CN2CCCCC2)c1O
3. Cc1ccc(N=Nc2ccccc2)cc1
4. O=C1/C=C/[C@@H](O)[C@@H]2C[C@@H](O)C[C@H]2/C=C/CCC[C@@H](C(F)(F)F)O1
5. COc1cc2cc(Oc3ccc(NC(=O)Nc4ccc(Cl)c(C(F)(F)F)c4)cc3)c(C)nc2cc1OC

82.6
87.2
92.3
39.9
-24.9

Please supply growth for each of the following items, keeping them in order.
1. COc1ccc2c(c1)C(=O)/C(=C/c1ncc([N+](=O)[O-])n1C)O2
2. CCCC1(CN2c3ccccc3Sc3ccc(Cl)cc32)CCN(CC)C1 (centres undefined)
3. COc1ccc(/C=C2/SC(=S)NC2=O)c(OC)c1OC
4. COc1ccc2c(c1)C(CC(=O)NN)CCC2 (centres undefined)
5. COc1ccc(-c2nn(-c3cccc(Cl)c3)cc2-c2c(C#N)c(=O)n3[nH]c(-c4ccc(C)cc4)nc3c2C#N)cc1

1: -20.5; 2: -68; 3: 98.3; 4: 112; 5: 5.33

====

# System: T-47D breast
# Assay info: NCI-60 one-dose screen, 48 h (100 = growth as untreated, 0 = no growth, -100 = all killed)
# Test conditions: 10 µM
This is part of a sample that, as a whole, favours compounds with a hit. Of some 83,000 tested, about 20% had one in any assay.
Test readout: growth (%)
Give bare numbers, in %.

Below are worked cases with known answers.
COc1cc(/C=C/c2cc(/C=C/c3ccc(O)c(OC)c3)[nH]c(=O)n2)ccc1O; 59.1
CC1(C)N=C(N)N=C(N)N1c1cccc(C#N)c1; 99.7
Nc1nc(Cl)nc2c1ncn2C1O[C@H](CO)[C@@H](O)[C@@H]1F (stereo partly specified); 49.3
Cc1ccc(/C=C2/C(=O)N(C)c3ccc(S(=O)(=O)Nc4ccc(C(C)(C)C)cc4)cc32)s1; 80.5
O=C1CSC(=S)N1/N=C/c1ccc(Cl)s1; 102
COc1cc2c3c(n(C4CCN(C)CC4)c(=O)c2cc1OC)-c1cc2c(cc1C3=O)OCO2; 31
COc1cc(/C=C/c2cc(/C=C/c3ccc(O)c(OC)c3)nc(N)n2)ccc1O; 1.57
CC(C)(C)OC(=O)CN1CCc2c(sc3ncnc(N/N=C/c4ccccc4Br)c23)C1; 47.3

// input: 6 molecules below; output: growth for each
1. Cc1ccc(NCCNCC(C)(C)O)c2c(=O)c3ccc(Cl)cc3sc12
2. CCOC(=O)c1cc(C(=O)c2ccc(F)cc2F)n2ccccc12
3. CCCCCCCCCCCCCCCCCC[n+]1ccc2c(C)c3c(c(C)c2c1)c1cc(O)ccc1n3CC
4. COc1ccc(-c2nn(-c3cccc(Cl)c3)cc2C=C(C#N)C#N)cc1
5. CN(C)CCCOc1ccccc1NC1=C(Cl)C(=O)C(Nc2ccccc2OCCCN(C)C)=C(Cl)C1=O
6. COc1cc(C2C(C#N)=C(N)Oc3cc(O)ccc32)cc(OC)c1OC (stereo unspecified)

[27.4, 76.3, 23.5, 21.1, -37, 16]

====

# System: SN12C renal
# Assay info: NCI-60 one-dose screen, 48 h (100 = growth as untreated, 0 = no growth, -100 = all killed)
# Test conditions: 10 µM
This is part of a sample that, as a whole, favours compounds with a hit. Of some 83,000 tested, about 20% had one in any assay.
Rule: growth of 30% or more gives True; anything lower gives False.

Cc1cc(C)nc(NS(=O)(=O)c2ccc(Nc3nc4nc(NCc5ccccc5)nc(-c5ccc(O)cc5)c4c(=O)[nH]3)cc2)n1; True
Cc1ccc(NCCNCC(C)(C)O)c2c(=O)c3ccc(Cl)cc3sc12; True
N#Cc1c(-c2ccc(Cl)cc2)csc1NC(=O)Nc1ccc(Cl)c(C(F)(F)F)c1; False
CC(C)(C)OC(=O)N1CCc2c(sc3ncnc(N/N=C/c4cccc5ccccc45)c23)C1; True
Nc1ccccc1NC(=O)c1ccc(CCCC(=O)Nc2ccc(C3CC3N)cc2)cc1 (centres undefined); True
COc1cc(C2CC(c3ccc4c(c3)OCO4)=NN2c2ccccc2)cc(OC)c1OC (centres undefined); True
COc1ccc(-c2onc(N)c2-c2cc(OC)c3c(c2)OCO3)cc1; False
COc1ccc2nc(Cl)c(Cn3nnc(Cc4ccccc4)n3)cc2c1; True

Hi, just wondering whether CCOC(=O)C1C(C(=O)OCC)C2C(=O)C3C(C(=O)OCC)C(C(=O)OCC)C3C(=O)C12 (centres undefined) shows growth of 30% or higher.
True

====

# Test system: SN12C renal
# Assay info: NCI-60 one-dose screen, 48 h
# Test conditions: 10 µM
Compounds without any hit were thinned out: in the full panel of roughly 83,000, 20% have a hit. Calls of active or inactive are those of the source. How the source made its calls: active means growth percent below 10; inactive means the rest.
The reply should name one outcome from active, inactive

CS(=O)(=O)c1nccc(-c2c(-c3cccc(O)c3)nc3sccn23)n1; inactive
O=C(CCCSc1nc(-c2ccc(Cl)cc2)cc(-c2ccc(Cl)cc2)n1)NO; active
CN1CCN(C2=Nc3ccccc3Oc3ccc(Cl)cc32)CC1; inactive
Nc1cc(-c2ccc(Cl)cc2)nn1-c1nc2ccccc2nc1Cc1ccccc1; inactive

Dear colleague, could you share the recorded outcome for CC(C)(C)c1ccc(S(=O)(=O)N[C@H]2CC[C@H]3[C@@H]4CCc5cc(O)c([N+](=O)[O-])cc5[C@H]4CC[C@]23C)cc1 when you have a moment?
inactive

# repeat for COc1ccc(-c2nc(-c3nc4ccc(C)cc4[nH]3)cc3c2[nH]c2ccccc23)cc1
inactive

Now try C1CN(CC2CCC(CN3CCOCC3)O2)CCO1 (stereo not given) .
inactive

And OC(CNc1ccnc2cc(Cl)ccc12)CNC1CCCCC1 (stereo not given) ?
inactive

CC(C)N(CCOc1cccc(-c2nc3sccn3c2-c2ccnc(S(C)(=O)=O)n2)c1)C(C)C ?
inactive

Same thing, different compound: COc1ccc(C2CC(c3cc(OC)c(OC)c(OC)c3)=NN2)cc1 (stereo not given)
inactive

====

Exercise: state measured growth for each of the compounds provided.
# Test system: SK-MEL-5 melanoma
# Assay info: NCI-60 one-dose screen, 48 h (100 = growth as untreated, 0 = no growth, -100 = all killed)
# Test conditions: 10 µM
About 83,000 compounds went through this panel and 20% of them were active in at least one assay; those are over-represented in the sample as a whole.
Answers are plain numbers, in %.

Example cases with answers are listed next.
O=C(O)c1ccc(-n2cc(CNc3ccc(Oc4ccccc4)cc3)c(-c3ccccc3)n2)cc1; 96.8
O=C(CCCSc1nc(-c2ccccc2)cc(-c2ccc(Cl)cc2)n1)NO; -27.7
COc1cc(C2C(C#N)=C(N)Oc3cc(O)ccc32)cc(OC)c1OC (stereo not drawn); 23

// for each compound in input: emit growth
1. COc1cc2c3c(n(C4CCNCC4)c(=O)c2cc1OC)-c1cc2c(cc1C3=O)OCO2
2. Cc1ccc(N=Nc2ccccc2)cc1
3. CCOC(=O)c1cc(C(=O)c2cc(OC)c(OC)c(OC)c2)n2nc(C)ccc12
4. CCOC(=O)/C(=C(\C)N)C1CC(=O)NC1=O (stereo not drawn)
5. Nc1ccc(CC[C@H]2CCC/C=C/[C@@H]3C[C@H](O)C[C@H]3[C@H](O)/C=C/C(=O)O2)cc1
6. O=C(NCCNC(=O)c1ccc(F)cc1)Nc1ccc(-n2cc(-c3ccncc3)c(-c3ccc(Cl)c(O)c3)n2)cc1
7. COc1ccc(-c2nn(-c3cccc(Cl)c3)cc2-c2nc(N)[nH]c(=O)c2C#N)cc1

1. -89.3
2. 102
3. 3.09
4. 97.9
5. -84.9
6. -84.9
7. 67.6

Field: growth. Fill in for each record below.
1. COc1ccc(/C=C/c2nnc(/C=C/c3ccc(OC)c(OC)c3)o2)cc1OC
2. NC(N)=N/N=C(\N=Nc1ccccc1)c1ccc(Cl)cc1
3. Nc1nccc(OCCO)n1
4. CC(C)c1cc(N=O)cc(C(C)C)c1O
5. O=C(Nc1cc(Cl)cc2c1-c1ccc(Cl)cc1C2O)C(Cl)Cl (stereo not drawn)
6. Cc1cccc(N=Cc2ccccc2O)c1C
7. CCOc1ccccc1/C=N/N1CCCCCC1
8. O=c1oc2c(cc1-c1ccc(F)cc1)C(O)Oc1ccccc1-2 (stereo not drawn)

1. 2.81
2. 65.1
3. 99.2
4. 105
5. 41.5
6. 103
7. 94.4
8. 34.8

Parameter requested: growth. Apply to each item below.
1. Cc1c(C(N)=O)sc2c1c(=O)n(Cc1ccccc1)c1nnc(-c3ccc(Br)cc3)n21
2. COc1ccc(C(=O)c2ccccc2CN2C(=O)c3ccccc3C2=O)cc1
3. O=C(Cn1cc(CO)nn1)Nc1nc2ccccc2s1
4. N#Cc1c(N)nc(-c2cc(F)cc(C(F)(F)F)c2)nc1-c1ccccc1F
5. O=C(Nc1ccc(OS(=O)(=O)c2ccccc2)cc1)C1CCCCC1

1. -38.2
2. 100
3. 102
4. 93.6
5. 77.1
